The origin of these recorded values is patent US6245817A.

# Test System: Human NPY5 Receptor (Homo sapiens, UniProt Q15761)
# Sequence (Q15761 whole entry): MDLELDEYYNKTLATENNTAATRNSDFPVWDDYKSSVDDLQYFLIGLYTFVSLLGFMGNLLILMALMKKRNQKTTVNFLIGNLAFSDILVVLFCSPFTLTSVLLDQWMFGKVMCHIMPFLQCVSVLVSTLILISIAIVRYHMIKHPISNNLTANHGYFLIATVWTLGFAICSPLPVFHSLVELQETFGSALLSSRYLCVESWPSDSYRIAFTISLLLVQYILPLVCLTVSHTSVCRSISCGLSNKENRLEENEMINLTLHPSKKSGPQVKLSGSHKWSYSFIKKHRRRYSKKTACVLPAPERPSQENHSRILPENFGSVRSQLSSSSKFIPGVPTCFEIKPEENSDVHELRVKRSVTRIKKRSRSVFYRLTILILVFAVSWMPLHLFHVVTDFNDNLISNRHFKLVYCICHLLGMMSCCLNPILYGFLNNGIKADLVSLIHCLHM
# Assay Summary: Human NPY5 Receptor Binding Assay
# Applied Conditions: [125I]PYY; read-out: hNPY5 IC50

Compound: O=C(CSc1ccc(F)cc1)Nc1ccc(C2CCCCC2)cc1
Test System: Human NPY5 Receptor (Homo sapiens, UniProt Q15761)
Value Operator: =
IC50 / nM: 210
--
Compound: COC(Cn1c(SCC(=O)Nc2ccc(Cl)cc2)nnc1-c1ccc(Cl)cc1)OC [Compound 161, reference compound]
Test System: Human NPY5 Receptor (Homo sapiens, UniProt Q15761)
Value Operator: >
IC50 / nM: 10000
--
Compound: O=C(CSc1ccc(O)cc1)Nc1ccc(C2CCCCC2)cc1
Test System: Human NPY5 Receptor (Homo sapiens, UniProt Q15761)
Value Operator: =
IC50 / nM: 1700
--
Compound: Cn1c(-c2ccc(Cl)cc2)cnc1SCC(=O)Nc1ccc(Cl)cc1 [Compound 154, reference compound]
Test System: Human NPY5 Receptor (Homo sapiens, UniProt Q15761)
Value Operator: >
IC50 / nM: 10000
--
Compound: O=C(CSc1nc2cc(Cl)ccc2s1)Nc1ccc(C2CCCCC2)cc1
Test System: Human NPY5 Receptor (Homo sapiens, UniProt Q15761)
Value Operator: >
IC50 / nM: 1000
--
Compound: Cn1cnnc1SCC(=O)Nc1ccc(F)cc1 [Compound 170, reference compound]
Test System: Human NPY5 Receptor (Homo sapiens, UniProt Q15761)
Value Operator: >
IC50 / nM: 10000
--
Compound: Nc1nc(SCC(=O)Nc2ccc(C(=O)c3ccccc3)cc2)nc2[nH]ncc12
Test System: Human NPY5 Receptor (Homo sapiens, UniProt Q15761)
Value Operator: =
IC50 / nM: 6800
--
Compound: Cn1ccnc1SCC(=O)Nc1ccc(C(=O)c2ccccc2)cc1
Test System: Human NPY5 Receptor (Homo sapiens, UniProt Q15761)
Value Operator: =
IC50 / nM: 440
--
Compound: O=C(CSc1nc2ccccc2[nH]1)Nc1ccc(C2CCCCC2)cc1
Test System: Human NPY5 Receptor (Homo sapiens, UniProt Q15761)
Value Operator: =
IC50 / nM: 500
